tested on: HCT-116; assay: Growth inhibition of human HCT116 cells at 10 uM after 48 hrs by sulforhodamine B assay; format: functional, cell-based
Active and inactive are the calls of the source. No cut-off for these calls is given here.
Result category, one only: TRUE (active), FALSE (inactive)

Hi team, can someone confirm the assay call for "O=C1/C(=C\c2cccn2C(=O)c2ccccc2)c2ccccc2N1c1c(Cl)cccc1Cl" ?
FALSE

Hi team, can someone confirm the assay call for "O=C1/C(=C\c2cccn2C(=O)c2ccc(Cl)cc2)c2ccccc2N1c1c(Cl)cccc1Cl" ?
FALSE

Hi team, can someone confirm the assay call for "O=C1/C(=C\c2cccn2Cc2ccc(Cl)cc2)c2ccccc2N1c1c(Cl)cccc1Cl" ?
FALSE

Hi team, can someone confirm the assay call for "O=C1/C(=C\c2cccn2C(=O)c2ccc(Cl)s2)c2ccccc2N1c1c(Cl)cccc1Cl" ?
FALSE

Hi team, can someone confirm the assay call for "O=C1/C(=C\c2ccc[nH]2)c2ccccc2N1c1c(Cl)cccc1Cl" ?
FALSE

Hi team, can someone confirm the assay call for "O=C1/C(=C\c2cccn2Cc2ccccc2)c2ccccc2N1c1c(Cl)cccc1Cl" ?
TRUE

Hi team, can someone confirm the assay call for "O=C1/C(=C\c2cccn2Cc2ccc(F)cc2)c2ccccc2N1c1c(Cl)cccc1Cl" ?
FALSE

Hi team, can someone confirm the assay call for "Cc1ccc(S(=O)(=O)n2cccc2/C=C2\C(=O)N(c3c(Cl)cccc3Cl)c3ccccc32)cc1" ?
FALSE

----------
system: RXF 393; experiment: Growth inhibition of human RXF393 cells at 10 uM after 48 hrs by sulforhodamine B assay; type: functional, cell-based
Activity calls are given as the source filed them. The rule behind the calls is not given here.
Result category, one only: active, inactive

Hi team, can someone confirm the assay call for "O=C1/C(=C\c2cccn2Cc2ccccc2)c2ccccc2N1c1c(Cl)cccc1Cl" ?
active

Hi team, can someone confirm the assay call for "O=C1/C(=C\c2cccn2C(=O)c2ccccc2)c2ccccc2N1c1c(Cl)cccc1Cl" ?
inactive

Hi team, can someone confirm the assay call for "O=C1/C(=C\c2ccc[nH]2)c2ccccc2N1c1c(Cl)cccc1Cl" ?
inactive

Hi team, can someone confirm the assay call for "Cc1ccc(S(=O)(=O)n2cccc2/C=C2\C(=O)N(c3c(Cl)cccc3Cl)c3ccccc32)cc1" ?
inactive

Hi team, can someone confirm the assay call for "O=C1/C(=C\c2cccn2Cc2ccc(F)cc2)c2ccccc2N1c1c(Cl)cccc1Cl" ?
inactive

Hi team, can someone confirm the assay call for "O=C1/C(=C\c2cccn2C(=O)c2ccc(Cl)cc2)c2ccccc2N1c1c(Cl)cccc1Cl" ?
inactive

Hi team, can someone confirm the assay call for "O=C1/C(=C\c2cccn2C(=O)c2ccc(Cl)s2)c2ccccc2N1c1c(Cl)cccc1Cl" ?
inactive

Hi team, can someone confirm the assay call for "O=C1/C(=C\c2cccn2Cc2ccc(Cl)cc2)c2ccccc2N1c1c(Cl)cccc1Cl" ?
inactive
